The measured values listed here are drawn from paper PMC9482650.

# measured_target: T1, LNX2_2, Q8N448
# T1 sequence (Q8N448 334-432, limits assumed, looked up): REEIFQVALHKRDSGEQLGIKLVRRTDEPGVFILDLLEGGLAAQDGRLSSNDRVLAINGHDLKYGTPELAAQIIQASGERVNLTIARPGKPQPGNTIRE
# assay_procedure: holdup assay
# Design: key: below the threshold = too weak to quantify, mostly under pKd 3.1 to 4
# cond: plain residues with an end cap or a label only (N-terminal biotin on a linker: ado-ado)
property_measured: pKd

Reference set, count: 5
1. SAAKVLTSMC [GHRHR, Q02643] | below the threshold
2. QSLNRMEYIV [JAG1, P78504] | 5.4
3. AKPSRISTVV [IQSEC2, Q5JU85] | 5.09
4. RHGSCVETSL [TMEM151B, Q8IW70] | below the threshold
5. EVNETDDTKM [KCNJ1, P48048] | below the threshold

The binder identified as MLSKQSESAI [FLVCR1, Q9Y5Y0] registered its pKd at below the threshold

Data point: EKKTLIGIKL [GOT1L1, Q8NHS2] ; pKd = below the threshold

The binder identified as TSSMRGMDAV [RSRC2, Q7L4I2] registered its pKd at below the threshold

So for LKVPPEERLI [CRB2, Q5IJ48] , the logged pKd turned out to be 3.72

Field pKd (entry PRISRSQSEL [CCDC134, Q9H6E4] ) reads below the threshold

The binder identified as VNKSKLLTDV [KCNA1, Q09470] registered its pKd at below the threshold

QKNRKAQEDL [CES3, Q6UWW8] yielded pKd of below the threshold

The binder identified as NLSIEKETKL [ASNSD1, Q9NWL6] registered its pKd at below the threshold

So for TACCHSETVV [TGFA, P01135] , the logged pKd turned out to be 5.21

// pKd value for DDEDRLVIEI [ZNF831, Q5JPB2] : 4.76

Documented pKd of SAKVRTVTSV [RASL11B, Q9BPW5] : 4.9
